Outcome measure: melting point

## Task Which melting point reading was recorded for the molecule Cc1cc2c(cc1O)C(C)(C)CC2 ?
## Result 70 to 71 °C

## Task Which melting point reading was recorded for the molecule COc1cccc(-c2c(C3CCN(C)CC3)[nH]c(=O)c3ccccc23)c1 ?
## Result 181 to 183 °C

## Task Which melting point reading was recorded for the molecule COc1cccc(C(N)=O)c1SSc1c(OC)cccc1C(N)=O ?
## Result 188 to 189 °C

## Task Which melting point reading was recorded for the molecule CC1(C)CSc2c(-c3ccccc3)c(-c3ccc(Cl)cc3)cn2C1 ?
## Result 147 to 148 °C

## Task Which melting point reading was recorded for the molecule Cc1cc(C(C)(C)C)c(OP2OP(Oc3c(C(C)(C)C)cc(C)cc3C(C)(C)C)OP(Oc3c(C(C)(C)C)cc(C)cc3C(C)(C)C)O2)c(C(C)(C)C)c1 (stereo unspecified) ?
## Result 176 to 181 °C

## Task Which melting point reading was recorded for the molecule OCc1ccc2c(c1)ncn2Cc1ccccc1 ?
## Result 148 to 150 °C

## Task Which melting point reading was recorded for the molecule COc1cc2c(cc1OC)CN(CC(O)c1ccc(N)cc1)CC2 (stereo unspecified) ?
## Result 168 °C

## Task Which melting point reading was recorded for the molecule O=C(O)c1cccc2c1[nH]c1ccc(F)cc12 ?
## Result 254 °C

## Task Which melting point reading was recorded for the molecule COc1nc2ccccc2cc1NC(=O)N1CCN(c2ccccc2Cl)CC1 ?
## Result 79 to 80 °C

## Task Which melting point reading was recorded for the molecule CCOC=NC1=C(C#N)C(c2ccc(F)c(Cl)c2)c2ccc3ccccc3c2O1 (stereo unspecified) ?
## Result 146 to 148 °C

## Task Which melting point reading was recorded for the molecule O=c1nc(N2CCc3ccccc3C2)sc2ncccc12 ?
## Result 159 to 160 °C

## Task Which melting point reading was recorded for the molecule OC(CNC1CCc2ccccc2C1)COc1cccc2[nH]ccc12 (stereo unspecified) ?
## Result 65 to 68 °C

## Task Which melting point reading was recorded for the molecule COC(=O)COc1cc2ccccc2c2c1c(C(=O)C(N)=O)c(C)n2CC1CCCCC1 ?
## Result 156 to 158 °C

## Task Which melting point reading was recorded for the molecule COc1ccc(Cc2cc(I)ccc2OC)cn1 ?
## Result 68 to 70 °C

## Task Which melting point reading was recorded for the molecule C=CC(=O)N1CCC(C(=O)O)CC1 ?
## Result 109 to 110 °C

## Task Which melting point reading was recorded for the molecule O=Cc1cccc(-c2cc3nccnc3[nH]2)c1 ?
## Result 268 to 270 °C

## Task Which melting point reading was recorded for the molecule CN(C)N1C2=NCCN2C(=O)c2ccccc21 ?
## Result 197 to 198 °C

## Task Which melting point reading was recorded for the molecule CS(=O)(=O)c1ccc(-n2nc(C(F)(F)F)cc2-c2ccc(-c3ccco3)cc2)cc1F ?
## Result 129 to 130 °C

## Task Which melting point reading was recorded for the molecule C=CCOc1nc2ccccc2c2ncc(C(=O)OCC)c(=O)n12 ?
## Result 191 to 195 °C

## Task Which melting point reading was recorded for the molecule CCOC(=O)NS(=O)(=O)c1c(C(=O)OCC)c(Cl)nn1C ?
## Result 82 to 85 °C

## Task Which melting point reading was recorded for the molecule O=C(O)CN(CC(=O)O)c1cc(OCCCCCCCCCCCCOc2ccccc2)cc(OCCCCCCCCCCCCOc2ccccc2)c1 ?
## Result 72 to 74 °C

###

Outcome measure: melting point

## Task Which melting point reading was recorded for the compound O=C(Nc1ccc(F)cc1)OC1CCCNC1 (centres undefined) ?
## Result 147 to 148 °C

## Task Which melting point reading was recorded for the compound CC(=O)NCC1CC(c2cc(F)c(F)c(F)c2)=NO1 (centres undefined) ?
## Result 136 to 137 °C

## Task Which melting point reading was recorded for the compound CC(=O)NS(=O)(=O)c1cc(C(=O)O)cc([N+](=O)[O-])c1Oc1ccccc1 ?
## Result 270 to 271 °C

## Task Which melting point reading was recorded for the compound CC(C)(C)c1ccc(-c2ccc3c(C(N)=O)nn(-c4ccc(S(N)(=O)=O)cc4)c3c2)cc1 ?
## Result 262 to 263 °C

## Task Which melting point reading was recorded for the compound N#Cc1cnc(N)nc1-c1ccc(Cl)cc1C(=O)c1ccccc1F ?
## Result 153 to 157 °C

## Task Which melting point reading was recorded for the compound CC(C)C=C1CCC2(C1)C(=O)C=C(OC(C)C)CC2C (centres undefined) ?
## Result 88 to 91 °C

## Task Which melting point reading was recorded for the compound O=C(NCc1ccc(Cl)nc1)C(Cl)=NNc1ccc(C(F)(F)F)cc1 ?
## Result 172 to 173 °C

## Task Which melting point reading was recorded for the compound CCS(=O)(=O)N(CCN(C)C(C)=O)c1ccc(N)cc1 ?
## Result 140 °C

## Task Which melting point reading was recorded for the compound CCCCOc1c(CNC(=O)OC(C)(C)C)n(CC2CC2)c(=O)c2ccc(OCc3ccccc3)cc12 ?
## Result 106 to 107 °C

## Task Which melting point reading was recorded for the compound CC1Oc2ccc(OCc3nc4cc(F)ccc4s3)cc2C(=O)C1Cc1cccc(NS(=O)(=O)C(F)(F)F)c1 (centres undefined) ?
## Result 183 to 185 °C

## Task Which melting point reading was recorded for the compound CC(C)(C)c1ccccc1-n1c(=O)[nH]c2c(C(N)=O)nc(-c3cccc(O)c3)nc21 ?
## Result 294 to 297 °C

## Task Which melting point reading was recorded for the compound COc1cccnc1CSCCN=C(NC#N)SC ?
## Result 102 to 103 °C

## Task Which melting point reading was recorded for the compound O=C1CN2Cc3cc(C(=O)c4cccnc4)ccc3N=C2N1 ?
## Result 275 °C

## Task Which melting point reading was recorded for the compound OCCc1c(-c2ccccc2)[nH]c2nccnc12 ?
## Result 201 to 202 °C

## Task Which melting point reading was recorded for the compound CCOC(=O)C(=CNC1CC1)C(=O)c1c(N)c(F)c(F)c(OC(F)F)c1F ?
## Result 103 to 104 °C

## Task Which melting point reading was recorded for the compound COC(=O)Nc1cn2cccc(Sc3ccccc3)c2n1 ?
## Result 169 to 171 °C

## Task Which melting point reading was recorded for the compound NS(=O)(=O)c1ccc(OC2CCCCO2)s1 (centres undefined) ?
## Result 90 to 92 °C

## Task Which melting point reading was recorded for the compound CC(C)C(NC(=O)OCCN1CCOCC1)C(=O)NC(Cc1ccccc1)C(O)C(Cc1ccccc1)NC(=O)C(NC(=O)OCc1ccccc1)C(C)C (centres undefined) ?
## Result 159 to 161 °C

## Task Which melting point reading was recorded for the compound COCn1nc(N2C(=O)c3ccccc3C2=O)c2cc(S(=O)(=O)C(C)C)cc(OCCc3ccccn3)c21 ?
## Result 160 to 161 °C

###

Outcome measure: melting point

## Task Which melting point reading was recorded for the compound CC(C)c1ccc(N(Cc2ccc(N(C)C)cc2)C(=O)C2CCCc3cc(O)ccc32)cc1 (stereo unspecified) ?
## Result 169 to 171 °C

## Task Which melting point reading was recorded for the compound N#Cc1cnc2sc(C#Cc3ccncc3)cc2c1Nc1ccc2[nH]ccc2c1 ?
## Result > 250 °C

## Task Which melting point reading was recorded for the compound O=c1cc(-c2ccc(OCc3ccccc3)c(OCc3ccccc3)c2)oc2ccc(OCC3CO3)cc12 (stereo unspecified) ?
## Result 147 to 149 °C

## Task Which melting point reading was recorded for the compound O=C(O)c1ccc(CCCc2ccccc2Cc2ccccc2)cc1 ?
## Result 135 to 136 °C

## Task Which melting point reading was recorded for the compound Cc1cc(Cl)cc(C(=O)Nc2ccn(C)n2)n1 ?
## Result 204 °C

## Task Which melting point reading was recorded for the compound CCOC(=O)c1c(S(=O)C(C)C)c2cc(OCc3ccccc3)ccc2n1C (stereo unspecified) ?
## Result 142 to 145 °C

## Task Which melting point reading was recorded for the compound CC(=O)OC1(C)CC(=O)OC(CCc2ccc(OCc3ccccc3)cc2)C1 (stereo unspecified) ?
## Result 98 to 101 °C

## Task Which melting point reading was recorded for the compound O=C(OCc1ccccc1C(=O)O)c1ccccc1 ?
## Result 118 to 124 °C

## Task Which melting point reading was recorded for the compound Cc1cc(N(C)CC(=O)N2CCN(Cc3ccc4c(c3)OCO4)CC2)ccc1Oc1ccc([N+](=O)[O-])cn1 ?
## Result 142 to 143 °C

## Task Which melting point reading was recorded for the compound O=c1nc(-c2ccccn2)sc2cc(Cl)ccc12 ?
## Result 245 to 246 °C

## Task Which melting point reading was recorded for the compound N#CCC1CN(Cc2ccccc2)CCO1 (stereo unspecified) ?
## Result 62 °C

## Task Which melting point reading was recorded for the compound COCC(O)c1nc2cc(Cl)ccc2c(O)c1C(=O)Nc1nccs1 (stereo unspecified) ?
## Result > 270 °C

## Task Which melting point reading was recorded for the compound CNc1nc(OC)ccc1[N+](=O)[O-] ?
## Result 152 to 153 °C

## Task Which melting point reading was recorded for the compound CC1(C)CCn2c(nc(-c3ccncc3)cc2=O)N1 ?
## Result 345 to 347 °C

## Task Which melting point reading was recorded for the compound N#Cc1cn(CC(O)CCl)nc1[N+](=O)[O-] (stereo unspecified) ?
## Result 78 to 80 °C

## Task Which melting point reading was recorded for the compound CC(C)(Oc1ccc(F)cc1Cl)C(=O)O ?
## Result 63 to 65 °C

## Task Which melting point reading was recorded for the compound COc1ccc(-c2c(C)nc(N)nc2C2CCN(C(=O)c3ccccc3)CC2)cc1 ?
## Result 226 to 227 °C

## Task Which melting point reading was recorded for the compound COC(=O)c1ccc(NC(=O)c2ccccc2C)nc1 ?
## Result 167 to 169 °C

## Task Which melting point reading was recorded for the compound O=C(O)COCCCCN(c1cnc(-c2ccccc2)c(-c2ccccc2)n1)C1CCCC1 ?
## Result 101 to 103 °C

## Task Which melting point reading was recorded for the compound O=C(O)/C=C/c1nncn1-c1ccc(F)cc1 ?
## Result 226 to 229 °C

## Task Which melting point reading was recorded for the compound CCCCCCCCCCn1c(=O)n(C2OC(CO)C(O)C2O)c2nc(N)[nH]c(=O)c21 (stereo unspecified) ?
## Result 174 to 176 °C

The reported numbers originate from a melting point compilation (Tetko et al.; mined from patent text by program, amines drawn as free bases though some values may be those of a salt).
